- SYSTEM: GPR40 (Homo sapiens, UniProt O14842)
- Sequence (O14842 whole entry): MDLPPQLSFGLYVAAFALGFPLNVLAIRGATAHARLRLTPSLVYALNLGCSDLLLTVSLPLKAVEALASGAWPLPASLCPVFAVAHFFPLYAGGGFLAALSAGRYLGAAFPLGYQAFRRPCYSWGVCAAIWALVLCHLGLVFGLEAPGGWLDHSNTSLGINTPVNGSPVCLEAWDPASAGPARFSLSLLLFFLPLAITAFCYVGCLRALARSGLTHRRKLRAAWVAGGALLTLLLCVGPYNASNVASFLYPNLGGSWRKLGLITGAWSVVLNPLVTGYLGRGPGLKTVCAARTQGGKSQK
- ASSAY_NOTES: GPR40 agonist calcium flux assay in hGPR40/Gα16/HEK293 cells
- TEST_CONTEXT: HEK293, read-out: Maximal Response % (100 μM)
RECORDED_ENDPOINT: Emax at 100 µM (%)
Reply with just the number (in %).

Use these answered entries as a reference point.
O=C(O)CCc1ccc(OCc2cccc(-c3ccccc3)c2)cc1
98
O=C(O)CCc1ccc(OCc2ccc3ccccc3n2)cc1
84
O=C(O)CCc1ccc(OCC(=O)Nc2nc3ccccc3s2)cc1
9.9

# evaluate next
Lab note: CCCCC/C=C\C/C=C\CCCCCCCC(=O)O [LA, Linoleic acid, reference compound] gave Emax at 100 µM of 100
